# target: Neu5Ac(a2-3)Gal(b1-4)GlcNAc(b1-3)Gal(b1-4)GlcNAc
# assay-protocol: glycan array binding signal (z-score within array); higher = stronger binding
# measurement-parameters: glycan notation: IUPAC condensed, linker removed
Only a selection was taken, and the strongest signals are over-represented in it overall.
measured-quantity: glycan array binding signal (z-score)

binder | measured-quantity | result-number
CBM40 CPF071 (Clostridium perfringens) (protein) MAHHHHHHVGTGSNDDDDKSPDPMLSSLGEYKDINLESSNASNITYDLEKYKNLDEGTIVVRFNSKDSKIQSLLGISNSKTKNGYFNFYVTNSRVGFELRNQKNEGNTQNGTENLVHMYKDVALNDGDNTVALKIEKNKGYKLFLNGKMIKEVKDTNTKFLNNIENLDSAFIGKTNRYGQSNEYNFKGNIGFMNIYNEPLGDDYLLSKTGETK | glycan array binding signal (z-score) | 1.96
HA-11100 (Pseudomonas aeruginosa), Q02G51_PSEAB (protein) QFNPNEIKISQQGKTTLIDQSTQRAIINWKGFDVSADEAVRFNQPGVTSSTLNRVTAGQESVIAGRISAPGQVIIYNSNGVVFSGSAKVDVGSLITTTANISDEHFRQGKLIFDQPGNPDARIVNDGSISVAEKGLAAFVAPSVANNGVINARLGTVAMAAGNAATIDLYG | glycan array binding signal (z-score) | -0.347
SJCP3842 (Schistosoma japonicum) (protein) MFKMRIINLVNISTVLLLINLLQTKSRLVGKENGFMLTVSIYGAQLSDKMTSVPVSWTIDYEDPEKSAFKKLVTDSCDTFSEYVKSQIPKGSVDGQCTSHIFQRPGSGSGVSISLTLSFIYVDVTQPDTVALKTELEKHFANFVTIHSHKITQAQFRINQKAIVIPTGDKDAIDGSKWKIIAIIALVALAIVVIGGFIYICVK | glycan array binding signal (z-score) | 1.89
SJCP1531 (Schistosoma japonicum) (protein) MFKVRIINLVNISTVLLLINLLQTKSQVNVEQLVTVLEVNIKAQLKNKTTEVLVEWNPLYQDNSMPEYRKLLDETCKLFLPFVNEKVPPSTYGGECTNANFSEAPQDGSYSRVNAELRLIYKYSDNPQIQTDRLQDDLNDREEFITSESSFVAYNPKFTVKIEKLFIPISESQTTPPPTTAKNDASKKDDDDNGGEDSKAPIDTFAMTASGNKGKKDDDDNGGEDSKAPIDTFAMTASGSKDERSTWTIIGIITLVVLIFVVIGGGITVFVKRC | glycan array binding signal (z-score) | 2.53
RSVL (Crotalus atrox), P21963 (protein) NNCPLDWLPMNGLCYKIFNQLKTWEDAEMFCRKYKPGCHLASFHRYGESLEIAEYISDYHKGQENVWIGLRDKKKDFSWEWTDRSCTDYLTWDKNQPDHYQNKEFCVELVSLTGYRLWNDQVCESKDAFLCQCKF | glycan array binding signal (z-score) | -0.365
SRS6 (Toxoplasma gondii), Q9NH12 (protein) MARTGSMQQRRGGFQTTARMLMAVCVSGVLLLSSGPSSANKLTEGQQNQNSGPGAATQEGPTIEGAVAKCVLKTTAAENGSSRAKNTTGLTLSKENLVVSLQCSGEKNAIVPKDQKKVCSAAPNAKVADCKGADTDKQVTLKSLLGTSGDIQWEKTIVSTDNKGEVMTLKIKESELPLFDKAFFVGCEEDKAQTRTSQATECKVNVSVKARPSTVGENNVVTCAYGKDSNPRPLEVEMSADNDTLTIDCGTDGSLKPTKYTEEFCVTDNSQLESCTTKKFSEILPTFLPSWWVSDSQNGSAKLTIPESGFPEEQQQFRLGCVPKKTTQSPQANPSVKTEKEEGAQNTDASTSNCSVIVTVKASNFSSLASSIAPTAAVAGGAAALTGFLVGSF | glycan array binding signal (z-score) | 2.13
